EXPERIMENT_DESCRIPTION: n-hexadecane/water
EXPERIMENTAL_CONTEXT: 25 °C, shake-flask, P=l1/l2, ± error
MEASURED_QUANTITY: P (n-hexadecane/water partition coefficient)

Exercise: What value of P (n-hexadecane/water partition coefficient) has been reported for the following molecule? `Cc1cc(O)ccc1Cl`
Key: 1.651±0.701

----------
EXPERIMENT_DESCRIPTION: n-hexadecane/water
EXPERIMENTAL_CONTEXT: 25 °C, shaking at 25 rpm, fit of eqs 1 and 2
MEASURED_QUANTITY: l1 (rate parameter of transport from water to C16)

Exercise: What value of l1 (rate parameter of transport from water to C16) has been reported for the following molecule? OCc1c2ccccc2cc2ccccc12 [9-anthracenemethanol]
Key: 1.565 ± 0.236 cm/h

----------
So I've got a bunch of compounds here, and I need their logP C16/O values.
EXPERIMENT_DESCRIPTION: n-hexadecane/1-octanol
EXPERIMENTAL_CONTEXT: calculated as logPC16/W-logPO/W

The cases that follow already have their logP C16/O on record.
>>> recorded_measurement("Cn1c2ccccc2c2ccccc21 [N-methylcarbazole]")
0.799
>>> recorded_measurement("C1=Cc2ccccc2C1 [1H-indene]")
"−0.078"
>>> recorded_measurement("C(=CC=Cc1ccccc1)C=Cc1ccccc1 [1,6-diphenyl-1,3,5-hexatriene]")
0.188

Each compound below has a recorded value; state its logP C16/O.
1. c1ccc2c(c1)[nH]c1ccccc12 [9H-carbazole]
2. CN[C@@H](C)[C@H](O)c1ccccc1 [ephedrine, reference compound]
3. CC(C)(c1ccc(O)cc1)c1ccc(O)cc1 [bisphenol A]

Key:
["−0.851", "−1.770", "−4.222"]

----------
EXPERIMENT_DESCRIPTION: n-hexadecane/1-octanol
EXPERIMENTAL_CONTEXT: calculated as logPC16/W-logPO/W
Lab note: cut-off is -0.01. Strictly less in logP C16/O is Yes. Exactly -0.01 or more is No.

Sample answers from the record:
>>> assigned_label("O=C(O)CCCc1c[nH]c2ccccc12 [1H-indole-3-butanoic acid]")
"Yes"
>>> assigned_label("CCCCCc1cc(OC)c2c(c1)OC(C)(C)C1CC=C(C)CC21 (centres unmarked) [methoxy-Δ8-tetrahydrocannabinol]")
"No"
>>> assigned_label("NCCc1c2ccccc2cc2ccccc12 [9-anthracene-ethanamine]")
"Yes"

Exercise: Take the compound CC(C)(C)CC(C)(C)c1ccc(O)cc1 [4-tert-octylphenol] and say whether its logP C16/O is less than -0.01.
Key: Yes

Exercise: CCCCCCCCO [1-octanol] , same question.
Key: Yes

Exercise: Cn1ccc2ccccc21 [N-methylindole] , same question.
Key: No

Exercise: `Cc1ccc(C=CC=CC=Cc2ccccc2)cc1` , same question.
Key: No

Exercise: CCCCCO [1-pentanol] , same question.
Key: Yes

Exercise: O=C(O)CCCCCCCCCCn1c2ccccc2c2ccccc21 [11-(9-carbazole)-undecanoic acid] , same question.
Key: Yes

Exercise: Cc1c2ccccc2cc2ccccc12 [9-methylanthracene] , same question.
Key: Yes

Exercise: CCCCCCCO [1-heptanol] , same question.
Key: Yes

----------
EXPERIMENT_DESCRIPTION: n-hexadecane/1-octanol
EXPERIMENTAL_CONTEXT: calculated as logPC16/W-logPO/W
Lab note: cut-off is -0.7. Strictly less in logP C16/O is rule met. Exactly -0.7 or more is rule not met.

Sample answers from the record:
>>> assigned_label("O=C(O)Cc1c2ccccc2cc2ccccc12")
"rule met"
>>> assigned_label("O=C(O)CCc1ccc(C=CC=CC=Cc2ccccc2)cc1")
"rule met"
>>> assigned_label("CCCCCCCCCC")
"rule not met"
>>> assigned_label("Cc1c[nH]c2ccccc12")
"rule met"
>>> assigned_label("CC(C)c1c(O)ccc2c1CC[C@H]1C(C)(C)CCC[C@]21C")
"rule met"
>>> assigned_label("c1ccc2[nH]ccc2c1")
"rule met"

Okay, now this molecule:
Exercise: Take the molecule FC(F)OC(Cl)C(F)(F)F (centres unmarked) [isofluorane, reference compound] and say whether its logP C16/O is less than -0.7.
Key: rule not met

----------
So I've got a bunch of molecules here, and I need their P (n-hexadecane/water partition coefficient) values.
EXPERIMENT_DESCRIPTION: n-hexadecane/water
EXPERIMENTAL_CONTEXT: 25 °C, shake-flask, P=l1/l2, ± error

>>> recorded_measurement("O=CNc1ccccc1 [formanilide]")
"2.900±0.955)×10^−1"

Each molecule below has a recorded value; state its P (n-hexadecane/water partition coefficient).
1. CCC(O)c1ccccc1 (stereo not drawn) [1-phenyl-1-propanol]
2. c1ccc2[nH]ccc2c1 [indole]
3. CCOC(=O)c1cccnc1 [ethylnicotinate]
4. CCOC(=O)c1ccc(N)cc1 [benzocaine, reference compound]

Key:
1. 3.153±0.630
2. 5.660±0.633
3. 3.583±0.983
4. 1.560±0.666

----------
EXPERIMENT_DESCRIPTION: n-hexadecane/water
EXPERIMENTAL_CONTEXT: 25 °C, shaking at 25 rpm, fit of eqs 1 and 2
MEASURED_QUANTITY: l1 (rate parameter of transport from water to C16)

Exercise: What value of l1 (rate parameter of transport from water to C16) has been reported for the following molecule? `COc1ccccc1OC`
Key: 1.171 ± 0.535 cm/h

----------
So I've got a bunch of compounds here, and I need their logP C16/O values.
EXPERIMENT_DESCRIPTION: n-hexadecane/1-octanol
EXPERIMENTAL_CONTEXT: calculated as logPC16/W-logPO/W

>>> recorded_measurement("CCCCCc1cc(O)c2c(c1)OC(C)(C)[C@@H]1CC=C(C)C[C@@H]21 [Δ8-tetrahydrocannabinol]")
"−2.139"
>>> recorded_measurement("OCc1ccccc1")
"−1.530"

Each compound below has a recorded value; state its logP C16/O.
1. CCc1ccccc1
2. FC1(F)CCC1(F)Cl (centres unmarked)
3. FC(F)(F)C(Cl)Br (centres unmarked) [halothane, reference compound]

Key:
[0.050, 1.436, "−0.200"]
